Reported pIC50 is given for each of the following compounds.
TGT: Dual specificity calcium/calmodulin-dependent 3',5'-cyclic nucleotide phosphodiesterase 1B (Homo sapiens)
Sequence (Q01064 whole entry): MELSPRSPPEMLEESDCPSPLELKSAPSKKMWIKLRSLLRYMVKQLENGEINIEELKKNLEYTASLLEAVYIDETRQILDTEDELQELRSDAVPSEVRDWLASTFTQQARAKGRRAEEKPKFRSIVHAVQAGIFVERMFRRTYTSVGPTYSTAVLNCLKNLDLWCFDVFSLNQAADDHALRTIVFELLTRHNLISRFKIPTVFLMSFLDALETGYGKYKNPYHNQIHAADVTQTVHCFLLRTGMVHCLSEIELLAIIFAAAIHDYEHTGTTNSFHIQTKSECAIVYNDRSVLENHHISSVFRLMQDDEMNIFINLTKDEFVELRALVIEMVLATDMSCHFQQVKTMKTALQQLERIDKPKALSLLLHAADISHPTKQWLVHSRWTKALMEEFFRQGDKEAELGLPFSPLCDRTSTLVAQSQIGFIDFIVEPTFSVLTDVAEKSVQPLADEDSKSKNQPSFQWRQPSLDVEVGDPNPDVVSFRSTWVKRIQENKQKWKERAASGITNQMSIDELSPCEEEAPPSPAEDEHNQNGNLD
TEST_NAME: Inhibition of PDE1B
pIC50: −log10 of the molar value.

# COMPOUND_STRUCTURE, pIC50
data = [
    ("CCCOCCn1c(=O)c(N[C@H]2CC[C@H](O)CC2)nc2cnc(-c3ccc(OC)nc3)cc21", "< 5.70"),
]

Please list pIC50 recorded for the compound CCCOCCn1c(=O)c(NCCN2CCOCC2)nc2cnc(-c3ccc(OC)nc3)cc21
< 5.70

###

TGT: cGMP-inhibited 3',5'-cyclic phosphodiesterase 3A (Homo sapiens, UniProt Q14432)
Sequence (Q14432 whole entry): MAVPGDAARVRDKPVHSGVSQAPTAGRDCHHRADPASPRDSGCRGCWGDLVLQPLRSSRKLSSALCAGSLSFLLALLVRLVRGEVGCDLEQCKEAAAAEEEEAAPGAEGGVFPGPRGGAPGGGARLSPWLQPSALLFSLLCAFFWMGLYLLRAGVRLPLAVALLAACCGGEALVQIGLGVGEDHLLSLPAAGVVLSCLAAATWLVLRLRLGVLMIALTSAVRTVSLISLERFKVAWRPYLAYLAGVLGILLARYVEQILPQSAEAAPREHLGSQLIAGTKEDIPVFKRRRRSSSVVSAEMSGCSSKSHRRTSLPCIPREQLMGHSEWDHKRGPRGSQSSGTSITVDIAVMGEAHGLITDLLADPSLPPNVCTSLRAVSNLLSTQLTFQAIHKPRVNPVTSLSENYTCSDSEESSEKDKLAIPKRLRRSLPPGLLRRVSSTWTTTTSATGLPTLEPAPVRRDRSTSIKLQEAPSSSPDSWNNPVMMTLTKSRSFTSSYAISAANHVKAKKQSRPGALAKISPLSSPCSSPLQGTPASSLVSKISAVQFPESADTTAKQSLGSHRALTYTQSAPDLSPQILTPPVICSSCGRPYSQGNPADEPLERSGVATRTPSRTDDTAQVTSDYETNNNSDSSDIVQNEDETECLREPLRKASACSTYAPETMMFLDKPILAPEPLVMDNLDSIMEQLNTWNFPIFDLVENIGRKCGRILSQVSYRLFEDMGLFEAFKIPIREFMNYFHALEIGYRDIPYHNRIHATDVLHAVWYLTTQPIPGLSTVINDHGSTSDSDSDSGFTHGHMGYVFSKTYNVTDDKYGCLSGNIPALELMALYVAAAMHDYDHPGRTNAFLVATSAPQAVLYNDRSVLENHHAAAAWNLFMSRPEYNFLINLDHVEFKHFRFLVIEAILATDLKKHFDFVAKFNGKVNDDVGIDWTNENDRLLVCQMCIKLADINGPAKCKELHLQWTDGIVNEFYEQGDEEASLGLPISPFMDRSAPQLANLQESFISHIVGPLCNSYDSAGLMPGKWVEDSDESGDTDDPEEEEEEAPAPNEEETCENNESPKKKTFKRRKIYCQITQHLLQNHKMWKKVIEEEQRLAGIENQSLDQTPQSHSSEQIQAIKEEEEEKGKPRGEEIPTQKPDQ
ATTRIBUTE_MEASURED: IC50

Would you please give the reported IC50 of CCCOCCn1c(=O)c(N[C@H]2CC[C@H](O)CC2)nc2cnc(-c3ccc(OC)nc3)cc21 with cGMP-inhibited 3',5'-cyclic phosphodiesterase 3A (Homo sapiens, UniProt Q14432)?
> 2000 nM

###

Reported Vd is given for each of the following compounds.
TEST_NAME: Volume of distribution in rat at 2 mg/kg, iv and 2 mg/kg, po
Format: ADME, organism-based
COND: in vivo
Give the value in L/kg but do not write L/kg after it.

Below: 5 compounds and their reported Vd.
# COMPOUND_STRUCTURE, Vd, L/kg
measured = [
    ("CCCOCCn1c(=O)c(NCCCO)nc2cnc(-c3ccc(OC)nc3)cc21", 1.2),
    ("CCCOCCn1c(=O)c(NCC(=O)N(C)C)nc2cnc(-c3ccc(OC)nc3)cc21", 0.9),
    ("CCCOCCn1c(=O)c(NC[C@H](C)O)nc2cnc(-c3ccc(OC)nc3)cc21", 1),
    ("CCCOCCn1c(=O)c(N[C@H](CC)CO)nc2cnc(-c3ccc(OC)nc3)cc21", 2.4),
    ("CCCOCCn1c(=O)c(NCC(=O)NC)nc2ncc(-c3ccc(OC)nc3)cc21", 1),
]

Please list Vd recorded for the compound CCCOCCn1c(=O)c(NCC(=O)N2CCN(CC)CC2)nc2cnc(-c3ccc(OC)nc3)cc21
2.3

Please list Vd recorded for the compound CCCOCCn1c(=O)c(NCC(=O)N2CCC(O)CC2)nc2cnc(-c3ccc(OC)nc3)cc21
1

Please list Vd recorded for the compound CCCOCCn1c(=O)c(N[C@H]2CC[C@H](O)CC2)nc2cnc(-c3ccc(OC)nc3)cc21
1.4

Please list Vd recorded for the compound CCCOCCn1c(=O)c(NCC(=O)N(C)C)nc2ncc(-c3ccc(OC)nc3)cc21
1.1

Please list Vd recorded for the compound CCCOCCn1c(=O)c(NCC(=O)N2CCOCC2)nc2ncc(-c3ccc(OC)nc3)cc21
0.8

Please list Vd recorded for the compound CCCOCCn1c(=O)c(NCC(=O)N2CCOCC2)nc2cnc(-c3ccc(OC)nc3)cc21
0.5

###

TEST_NAME: Half life in dog at 2 mg/kg, po and 2 mg/kg, iv
Type: ADME, organism-based, Canis lupus familiaris
COND: in vivo
With a cut-off of 4 h, any half-life strictly below it is called y; any half-life meeting it or above is called n.

Solved entries:
# COMPOUND_STRUCTURE, LABEL_VALUE
rows = [
    ("CCCOCCn1c(=O)c(NCC(=O)NC)nc2ncc(-c3ccc(OC)nc3)cc21", "y"),
    ("CCCOCCn1c(=O)c(NCC(=O)N(C)C)nc2cnc(-c3ccc(OC)nc3)cc21", "n"),
    ("CCCOCCn1c(=O)c(NCC(=O)N2CCOCC2)nc2ncc(-c3ccc(OC)nc3)cc21", "y"),
    ("CCCOCCn1c(=O)c(N[C@H]2CC[C@H](O)CC2)nc2cnc(-c3ccc(OC)nc3)cc21", "n"),
    ("CCCOCCn1c(=O)c(NCC(=O)N(C)C)nc2ncc(-c3ccc(OC)nc3)cc21", "y"),
]

Would you kindly look at the next entry?
Lab log: compare recorded half-life with 4 h; is it strictly lower for CCCOCCn1c(=O)c(NCC(=O)N2CCN(CC)CC2)nc2cnc(-c3ccc(OC)nc3)cc21 ?
y
